system: Liver microsomes; settings: human, 1 µM

| Smiles str | Test target | CLH, µL/min/mg |
| --- | --- | --- |
| CC(C)[C@@H]1CC[C@]2(C(=O)NCCCCCCCCC(=O)N[C@@H](CCC(N)=O)C(=O)O)CC[C@]3(C)[C@H](CC[C@@H]4[C@@]5(C)CC[C@H](O)C(C)(C)[C@@H]5CC[C@]43C)[C@@H]12 | Liver microsomes | 280 |
| C=C(C)[C@@H]1CC[C@]2(C(=O)NCCCCCCCNC(C)=O)CC[C@]3(C)[C@H](CC[C@@H]4[C@@]5(C)CC[C@H](O)C(C)(C)[C@@H]5CC[C@]43C)[C@@H]12 | Liver microsomes | 272 |
| C=C(C)[C@@H]1CC[C@]2(C(=O)NCCCCCCCNC(=O)[C@H](CCC(N)=O)NC(=O)OC(C)(C)C)CC[C@]3(C)[C@H](CC[C@@H]4[C@@]5(C)CC[C@H](O)C(C)(C)[C@@H]5CC[C@]43C)[C@@H]12 | Liver microsomes | 366 |
| C=C(C)[C@@H]1CC[C@]2(C(=O)NCCCCCCCCC(=O)N[C@@H](CCC(N)=O)C(=O)OC)CC[C@]3(C)[C@H](CC[C@@H]4[C@@]5(C)CC[C@H](O)C(C)(C)[C@@H]5CC[C@]43C)[C@@H]12 | Liver microsomes | 230 |

====

system: Human immunodeficiency virus 1; assay: Antiviral activity against HIV1 NL4-3 infected in human TZM-bl cells assessed as reduction in luciferase gene expression by luminescence assay; type: functional, organism-based; details: Human immunodeficiency virus 1, NL4-3, TZM-bl
Experimental endpoint: log10 EC50 (log10 of the value in nM)

| Smiles str | Test target | log10 EC50 |
| --- | --- | --- |
| C=C(C)[C@@H]1CC[C@]2(C(=O)NCCCCCCCCC(=O)N[C@@H](Cc3ccccc3)C(=O)OC)CC[C@]3(C)[C@H](CC[C@@H]4[C@@]5(C)CC[C@H](O)C(C)(C)[C@@H]5CC[C@]43C)[C@@H]12 | Human immunodeficiency virus 1 | 2.86 |
| C=C(C)[C@@H]1CC[C@]2(C(=O)NCCCCCCCCC(=O)N(C)CC#N)CC[C@]3(C)[C@H](CC[C@@H]4[C@@]5(C)CC[C@H](O)C(C)(C)[C@@H]5CC[C@]43C)[C@@H]12 | Human immunodeficiency virus 1 | 2.91 |
| C=C(C)[C@@H]1CC[C@]2(C(=O)NCCCCCCCCCC(=O)N[C@@H](CC(N)=O)C(=O)OC)CC[C@]3(C)[C@H](CC[C@@H]4[C@@]5(C)CC[C@H](O)C(C)(C)[C@@H]5CC[C@]43C)[C@@H]12 | Human immunodeficiency virus 1 | 1.90 |
| C=C(C)[C@@H]1CC[C@]2(C(=O)NCCCCCCCCNC(=O)[C@@H]3CCCN3C(=O)OC(C)(C)C)CC[C@]3(C)[C@H](CC[C@@H]4[C@@]5(C)CC[C@H](O)C(C)(C)[C@@H]5CC[C@]43C)[C@@H]12 | Human immunodeficiency virus 1 | 2.20 |
| C=C(C)[C@@H]1CC[C@]2(C(=O)NCCCCCCCCC(=O)N[C@@H](CC(N)=O)C(=O)OC)CC[C@]3(C)[C@H](CC[C@@H]4[C@@]5(C)CC[C@H](O)C(C)(C)[C@@H]5CC[C@]43C)[C@@H]12 | Human immunodeficiency virus 1 | 2.04 |

====

tested on: Liver microsomes; experiment: Half life in human liver microsomes at 1 uM

| Smiles str | Test target | t1/2 (min) |
| --- | --- | --- |
| C=C(C)[C@@H]1CC[C@]2(C(=O)NCCCCCCCNC(C)=O)CC[C@]3(C)[C@H](CC[C@@H]4[C@@]5(C)CC[C@H](O)C(C)(C)[C@@H]5CC[C@]43C)[C@@H]12 | Liver microsomes | 25.48 |
| C=C(C)[C@@H]1CC[C@]2(C(=O)NCCCCCCCCC(=O)N[C@@H](CCC(N)=O)C(=O)OC)CC[C@]3(C)[C@H](CC[C@@H]4[C@@]5(C)CC[C@H](O)C(C)(C)[C@@H]5CC[C@]43C)[C@@H]12 | Liver microsomes | 30.13 |
| COC(=O)[C@H](CCC(N)=O)NC(=O)CCCCCCCCNC(=O)[C@]12CC[C@@H](C(C)C)[C@@H]1[C@H]1CC[C@@H]3[C@@]4(C)CC[C@H](O)C(C)(C)[C@@H]4CC[C@@]3(C)[C@]1(C)CC2 | Liver microsomes | 31.64 |
| C=C(C)[C@@H]1CC[C@]2(C(=O)NCCCCCCCNC(=O)[C@H](CCC(N)=O)NC(=O)OC(C)(C)C)CC[C@]3(C)[C@H](CC[C@@H]4[C@@]5(C)CC[C@H](O)C(C)(C)[C@@H]5CC[C@]43C)[C@@H]12 | Liver microsomes | 18.93 |
| C=C(C)[C@@H]1CC[C@]2(C(=O)NCCCCCCCCC(=O)N[C@@H](CCC(N)=O)C(=O)OCc3ccccc3)CC[C@]3(C)[C@H](CC[C@@H]4[C@@]5(C)CC[C@H](O)C(C)(C)[C@@H]5CC[C@]43C)[C@@H]12 | Liver microsomes | 41.01 |
| CC(C)[C@@H]1CC[C@]2(C(=O)NCCCCCCCCC(=O)N[C@@H](CCC(N)=O)C(=O)O)CC[C@]3(C)[C@H](CC[C@@H]4[C@@]5(C)CC[C@H](O)C(C)(C)[C@@H]5CC[C@]43C)[C@@H]12 | Liver microsomes | 24.75 |

====

Below: a set of entries, each annotated with reported CC50 at 48 h.
test: Cytotoxicity against human MT4 assessed as cell viability after 2 days; assay type: cell-based; settings: MT4 cells, read-out: TD50

| Molecule | CC50 at 48 h |
| --- | --- |
| C=C(C)[C@@H]1CC[C@]2(C(=O)O)CC[C@]3(C)[C@H](CC[C@@H]4[C@@]5(C)CC[C@H](OC(=O)CC(C)(C)C(=O)O)C(C)(C)[C@@H]5CC[C@]43C)[C@@H]12 [BEVIRIMAT] | > 10 µM |
| COC(=O)[C@H](CCC(N)=O)NC(=O)CCCCCCCCNC(=O)[C@]12CC[C@@H](C(C)C)[C@@H]1[C@H]1CC[C@@H]3[C@@]4(C)CC[C@H](O)C(C)(C)[C@@H]4CC[C@@]3(C)[C@]1(C)CC2 | 4.6 µM |
| C=C(C)[C@@H]1CC[C@]2(C(=O)NCCCCCCCNC(C)=O)CC[C@]3(C)[C@H](CC[C@@H]4[C@@]5(C)CC[C@H](O)C(C)(C)[C@@H]5CC[C@]43C)[C@@H]12 | 12.6 µM |
| C=C(C)[C@@H]1CC[C@]2(C(=O)NCCCCCCCCC(=O)N[C@@H](CCC(N)=O)C(=O)OCc3ccccc3)CC[C@]3(C)[C@H](CC[C@@H]4[C@@]5(C)CC[C@H](O)C(C)(C)[C@@H]5CC[C@]43C)[C@@H]12 | 15 µM |

====

test system: Human immunodeficiency virus 1; experiment: Antiviral activity against HIV1 NL4-3 infected in human TZM-bl cells assessed as reduction in luciferase gene expression by luminescence assay; format: functional, organism-based; details: Human immunodeficiency virus 1, NL4-3, TZM-bl
Experimental endpoint: EC50 (nM)

| Smiles str | Experimental endpoint | Unit symbol | Reading qualifier | Observed value |
| --- | --- | --- | --- | --- |
| C=C(C)[C@@H]1CC[C@]2(C(=O)NCCCCCCCCC(=O)N[C@@H](CCC(N)=O)C(=O)OC(C)(C)C)CC[C@]3(C)[C@H](CC[C@@H]4[C@@]5(C)CC[C@H](O)C(C)(C)[C@@H]5CC[C@]43C)[C@@H]12 | EC50 | nM | = | 140 |
| C=C(C)[C@@H]1CC[C@]2(C(=O)NCCCCC/C=C(/F)C(=O)NCC(=O)O)CC[C@]3(C)[C@H](CC[C@@H]4[C@@]5(C)CC[C@H](O)C(C)(C)[C@@H]5CC[C@]43C)[C@@H]12 | EC50 | nM | = | 410 |
| C=C(C)[C@@H]1CC[C@]2(C(=O)NCCCCCCCCNC(=O)[C@H](CCC(N)=O)NC(=O)OC(C)(C)C)CC[C@]3(C)[C@H](CC[C@@H]4[C@@]5(C)CC[C@H](O)C(C)(C)[C@@H]5CC[C@]43C)[C@@H]12 | EC50 | nM | = | 60 |
| C=C(C)[C@@H]1CC[C@]2(C(=O)NCCCCCCCCCC(=O)N[C@@H](CCC(N)=O)C(=O)OC)CC[C@]3(C)[C@H](CC[C@@H]4[C@@]5(C)CC[C@H](O)C(C)(C)[C@@H]5CC[C@]43C)[C@@H]12 | EC50 | nM | = | 60 |
| C=C(C)[C@@H]1CC[C@]2(C(=O)NCCCCCCCNC(=O)[C@H](C)NC(=O)OC(C)(C)C)CC[C@]3(C)[C@H](CC[C@@H]4[C@@]5(C)CC[C@H](O)C(C)(C)[C@@H]5CC[C@]43C)[C@@H]12 | EC50 | nM | = | 110 |
| C=C(C)[C@@H]1CC[C@]2(C(=O)NCCCCC/C=C/C(=O)O)CC[C@]3(C)[C@H](CC[C@@H]4[C@@]5(C)CC[C@H](O)C(C)(C)[C@@H]5CC[C@]43C)[C@@H]12 | EC50 | nM | > | 4000 |
| C=C(C)[C@@H]1CC[C@]2(C(=O)NCCCCCCCCC(=O)N[C@@H](CCC(=O)OC)C(=O)OC)CC[C@]3(C)[C@H](CC[C@@H]4[C@@]5(C)CC[C@H](O)C(C)(C)[C@@H]5CC[C@]43C)[C@@H]12 | EC50 | nM | = | 60 |
| C=C(C)[C@@H]1CC[C@]2(C(=O)NCCCCCCCCC(=O)NCCC#N)CC[C@]3(C)[C@H](CC[C@@H]4[C@@]5(C)CC[C@H](O)C(C)(C)[C@@H]5CC[C@]43C)[C@@H]12 | EC50 | nM | = | 340 |
| C=C(C)[C@@H]1CC[C@]2(C(=O)NCCCCC/C=C(/F)C(=O)O)CC[C@]3(C)[C@H](CC[C@@H]4[C@@]5(C)CC[C@H](O)C(C)(C)[C@@H]5CC[C@]43C)[C@@H]12 | EC50 | nM | > | 4000 |
